Molecular target: SLC25A20_C89 (Homo sapiens)
Construct: endogenous in cells; host or cells: 22Rv1
Sequence (O43772 1-301): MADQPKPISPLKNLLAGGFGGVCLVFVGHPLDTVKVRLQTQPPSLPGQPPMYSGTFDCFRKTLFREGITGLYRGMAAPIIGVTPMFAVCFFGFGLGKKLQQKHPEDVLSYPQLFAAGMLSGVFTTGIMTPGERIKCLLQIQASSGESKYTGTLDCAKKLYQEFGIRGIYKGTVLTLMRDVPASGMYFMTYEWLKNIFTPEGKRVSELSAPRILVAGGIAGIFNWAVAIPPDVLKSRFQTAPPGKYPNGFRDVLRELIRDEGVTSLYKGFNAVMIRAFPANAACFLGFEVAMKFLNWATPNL
Assay: IA-DTB cysteine engagement
Format: binding
Conditions: 22Rv1 cells, 20 μM probe, 1 h, relative to DMSO
observation-type: % engagement SLC25A20_C89 (%)

Below, 2 compounds whose answers are already recorded.
>  <compound>
C=CC(=O)N1C[C@H](c2ccc(Br)cc2)[C@H]1C(=O)Nc1cccc2cccnc12 [MY-3B]

>  <observation-type>
% engagement SLC25A20_C89

>  <readout-value>
91

$$$$
>  <compound>
C=CC(=O)N1C[C@H](c2ccc(Br)cc2)[C@@H]1C(=O)Nc1cccc2cccnc12

>  <observation-type>
% engagement SLC25A20_C89

>  <readout-value>
94

$$$$

a: C=CC(=O)N1C[C@H](c2ccc(Br)cc2)[C@H]1C(=O)Nc1cccc2cccnc12 [MY-3A]
b: C=CC(=O)N1C[C@@H](c2ccc(Br)cc2)[C@H]1C(=O)Nc1cccc2cccnc12
**Query** // compare measured % engagement SLC25A20_C89, left a , right b , return larger Write down the label of the entry you select.
**Result** a
(a: 45%, b: 9.5%)

====

target: SLC25A16_C311 (Homo sapiens); construct: endogenous in cells; host or cells: 22Rv1; experiment: IA-DTB cysteine engagement; assay type: binding; conditions: 22Rv1 cells, 20 μM probe, 1 h, relative to DMSO
Sequence (P16260 whole entry): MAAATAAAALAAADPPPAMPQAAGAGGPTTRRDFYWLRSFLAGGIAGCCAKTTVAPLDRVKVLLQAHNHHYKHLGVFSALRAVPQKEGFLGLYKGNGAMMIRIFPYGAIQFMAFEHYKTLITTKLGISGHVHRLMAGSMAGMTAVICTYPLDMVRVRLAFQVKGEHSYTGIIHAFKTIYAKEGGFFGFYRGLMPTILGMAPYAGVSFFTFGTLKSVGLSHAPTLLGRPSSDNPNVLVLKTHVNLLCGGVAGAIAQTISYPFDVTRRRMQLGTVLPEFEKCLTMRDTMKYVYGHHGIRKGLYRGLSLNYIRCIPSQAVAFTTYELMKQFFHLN
observation-type: % engagement SLC25A16_C311 (%)

>  <compound>
C=CC(=O)N1C[C@H](c2ccc(Br)cc2)[C@@H]1C(=O)Nc1cccc2cccnc12 [MY-1B]

>  <unit-of-measure>
%

>  <% engagement SLC25A16_C311>
37.5

$$$$
>  <compound>
C=CC(=O)N1C[C@H](c2ccc(Br)cc2)[C@H]1C(=O)Nc1cccc2cccnc12 [MY-3A]

>  <unit-of-measure>
%

>  <% engagement SLC25A16_C311>
32

$$$$

I: C=CC(=O)N1C[C@@H](c2ccc(Br)cc2)[C@H]1C(=O)Nc1cccc2cccnc12 [MY-1A]
II: C=CC(=O)N1C[C@H](c2ccc(Br)cc2)[C@H]1C(=O)Nc1cccc2cccnc12 [MY-3B]
**Query** // compare measured % engagement SLC25A16_C311, left I , right II , return larger Write down the label of the entry you select.
**Result** I
(I: 79%, II: 38.5%)

====

target: ITPR2_C292 (Homo sapiens); construct: endogenous in cells; host or cells: 22Rv1; assay: IA-DTB cysteine engagement; type: binding; settings: 22Rv1 cells, 20 μM probe, 1 h, relative to DMSO
Sequence (Q14571 whole entry): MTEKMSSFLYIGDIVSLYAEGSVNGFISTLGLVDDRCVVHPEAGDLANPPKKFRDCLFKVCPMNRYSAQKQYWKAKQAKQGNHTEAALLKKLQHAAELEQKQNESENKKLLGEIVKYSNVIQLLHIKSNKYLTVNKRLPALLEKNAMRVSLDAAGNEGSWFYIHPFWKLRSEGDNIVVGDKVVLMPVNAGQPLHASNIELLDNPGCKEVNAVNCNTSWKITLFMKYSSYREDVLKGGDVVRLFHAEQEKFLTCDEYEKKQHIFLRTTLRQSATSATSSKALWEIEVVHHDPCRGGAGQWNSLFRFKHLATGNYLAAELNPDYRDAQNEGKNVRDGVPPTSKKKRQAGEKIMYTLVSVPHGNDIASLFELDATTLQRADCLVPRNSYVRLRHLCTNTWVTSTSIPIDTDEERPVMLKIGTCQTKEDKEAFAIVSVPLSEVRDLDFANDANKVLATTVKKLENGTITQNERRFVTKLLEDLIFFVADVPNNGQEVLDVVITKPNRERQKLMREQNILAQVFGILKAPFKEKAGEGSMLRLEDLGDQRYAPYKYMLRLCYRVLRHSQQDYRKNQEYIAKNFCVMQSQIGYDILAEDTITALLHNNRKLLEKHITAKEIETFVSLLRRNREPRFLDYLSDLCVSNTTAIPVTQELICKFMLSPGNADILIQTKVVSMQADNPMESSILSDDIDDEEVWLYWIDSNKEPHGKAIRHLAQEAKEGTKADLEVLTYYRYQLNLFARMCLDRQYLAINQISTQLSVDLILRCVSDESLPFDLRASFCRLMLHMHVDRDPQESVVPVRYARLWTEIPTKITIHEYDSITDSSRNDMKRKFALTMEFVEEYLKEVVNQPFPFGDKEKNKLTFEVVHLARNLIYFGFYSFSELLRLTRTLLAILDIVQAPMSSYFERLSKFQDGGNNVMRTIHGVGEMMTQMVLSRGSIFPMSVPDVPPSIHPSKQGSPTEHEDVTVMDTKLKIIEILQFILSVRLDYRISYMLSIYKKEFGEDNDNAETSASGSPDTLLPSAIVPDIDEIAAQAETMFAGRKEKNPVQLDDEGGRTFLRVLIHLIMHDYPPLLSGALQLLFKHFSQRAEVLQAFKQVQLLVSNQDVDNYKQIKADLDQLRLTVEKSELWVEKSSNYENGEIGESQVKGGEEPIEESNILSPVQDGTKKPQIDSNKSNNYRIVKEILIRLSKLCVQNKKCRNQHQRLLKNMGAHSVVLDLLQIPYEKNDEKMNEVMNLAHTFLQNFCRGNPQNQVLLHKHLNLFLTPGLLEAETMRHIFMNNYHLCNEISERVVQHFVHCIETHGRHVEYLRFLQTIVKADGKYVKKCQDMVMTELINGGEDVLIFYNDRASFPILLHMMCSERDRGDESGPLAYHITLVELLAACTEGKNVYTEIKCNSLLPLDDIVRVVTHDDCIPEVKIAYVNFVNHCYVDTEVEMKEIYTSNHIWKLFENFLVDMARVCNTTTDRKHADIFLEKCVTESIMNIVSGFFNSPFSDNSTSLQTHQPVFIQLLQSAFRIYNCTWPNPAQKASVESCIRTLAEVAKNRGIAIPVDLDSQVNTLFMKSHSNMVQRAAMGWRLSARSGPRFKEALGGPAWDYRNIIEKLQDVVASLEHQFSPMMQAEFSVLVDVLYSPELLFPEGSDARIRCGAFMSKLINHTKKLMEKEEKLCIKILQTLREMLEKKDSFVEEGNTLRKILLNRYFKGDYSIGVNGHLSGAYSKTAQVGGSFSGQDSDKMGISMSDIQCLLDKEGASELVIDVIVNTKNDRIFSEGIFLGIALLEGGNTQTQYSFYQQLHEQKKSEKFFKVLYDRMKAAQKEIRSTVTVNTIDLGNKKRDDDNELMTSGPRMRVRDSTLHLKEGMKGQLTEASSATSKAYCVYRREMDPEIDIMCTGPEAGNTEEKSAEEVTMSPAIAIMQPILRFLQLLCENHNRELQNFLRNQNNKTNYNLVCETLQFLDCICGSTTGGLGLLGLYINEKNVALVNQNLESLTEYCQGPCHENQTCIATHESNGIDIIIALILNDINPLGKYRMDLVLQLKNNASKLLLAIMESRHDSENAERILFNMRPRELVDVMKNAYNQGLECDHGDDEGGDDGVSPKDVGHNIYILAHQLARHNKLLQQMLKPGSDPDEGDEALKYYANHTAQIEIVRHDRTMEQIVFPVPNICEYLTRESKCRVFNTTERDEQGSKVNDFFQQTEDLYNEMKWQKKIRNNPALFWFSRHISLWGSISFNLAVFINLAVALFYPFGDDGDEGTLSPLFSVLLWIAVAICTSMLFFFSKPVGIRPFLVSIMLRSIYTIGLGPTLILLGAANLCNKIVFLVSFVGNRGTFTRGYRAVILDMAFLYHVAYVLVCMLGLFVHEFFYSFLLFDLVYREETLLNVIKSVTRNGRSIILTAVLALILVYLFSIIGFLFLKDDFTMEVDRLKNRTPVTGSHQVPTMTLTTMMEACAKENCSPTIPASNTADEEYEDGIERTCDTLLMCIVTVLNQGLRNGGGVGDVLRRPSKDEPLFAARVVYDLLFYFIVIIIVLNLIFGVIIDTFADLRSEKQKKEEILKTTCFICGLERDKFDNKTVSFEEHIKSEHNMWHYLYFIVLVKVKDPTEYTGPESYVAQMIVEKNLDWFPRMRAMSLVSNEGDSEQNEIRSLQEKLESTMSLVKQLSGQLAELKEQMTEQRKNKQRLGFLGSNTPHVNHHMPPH
observation-type: % engagement ITPR2_C292 (%)

>  <molecule>
C=CC(=O)N1C[C@H](c2ccc(Br)cc2)[C@H]1C(=O)Nc1cccc2cccnc12 [MY-3B]

>  <target-entity>
ITPR2_C292 (Homo sapiens)

>  <unit-of-measure>
%

>  <% engagement ITPR2_C292>
50.5

$$$$

I: C=CC(=O)N1C[C@H](c2ccc(Br)cc2)[C@H]1C(=O)Nc1cccc2cccnc12 [MY-3A]
II: C=CC(=O)N1C[C@H](c2ccc(Br)cc2)[C@@H]1C(=O)Nc1cccc2cccnc12 [MY-1B]
III: C=CC(=O)N1C[C@@H](c2ccc(Br)cc2)[C@H]1C(=O)Nc1cccc2cccnc12 [MY-1A]
**Query** Task for the reader: rank each entry by its % engagement ITPR2_C292, from the minimum upward. Answer format: the labels, ordered as requested.
**Result** III, I, II
